Reference source for all entries: the Human Domainome abundance scans (Beltran et al. 2025)

Documented abundance fitness across a set of variants
B1: Pituitary-specific positive transcription factor 1, residues 130 to 198; numbered along this chain, P28069 (parent)
chain: RELEKFANEFKVRRIKLGYTQTNVGEALAAVHGSEFSQTTICRFENLQLSFKNACKLKAILSKWLEEAE

Variants of: B1
PROTOCOL_NOTES: abundance fitness (aPCA) (normalised: wild type 0, dead -1); higher = more abundant; growth selection in yeast, the domain comes from the species named
PARTICULARS: Homo sapiens

{"columns": ["MUTATION_ANNOTATION", "abundance fitness"],
 "data": [
  ["F51I", -0.1],
  ["L65H", -0.887],
  ["T20V", -0.789],
  ["K56C", -0.505],
  ["F10C", -0.923],
  ["E35H", -0.228],
  ["G33Y", -0.96],
  ["T39S", -0.065],
  ["E2Y", -0.651],
  ["E2Q", -0.523],
  ["I60N", -0.357],
  ["Y19H", -0.376],
  ["C55L", 0.121],
  ["L17T", -0.941],
  ["E4M", -0.451],
  ["E67V", -0.39],
  ["T22P", -0.573],
  ["Y19V", -0.855],
  ["F51L", -0.19],
  ["N46C", -0.787],
  ["E69F", -0.616],
  ["L3H", -0.611],
  ["R43L", -0.181],
  ["L47I", -0.866],
  ["Q21T", -0.028],
  ["R43F", -0.289],
  ["T20R", -0.941],
  ["A59N", 0.078],
  ["N8D", -0.532],
  ["N23P", -0.992],
  ["S62Q", 0.047],
  ["S62H", -0.127],
  ["K56V", -0.135],
  ["Q48R", -0.331],
  ["G33S", -0.75],
  ["F6S", -0.997],
  ["K58S", -0.58],
  ["T39V", -0.113],
  ["W64G", -0.568],
  ["V31H", -0.574],
  ["E45C", -0.763],
  ["L47S", -0.168],
  ["K52T", 0.036],
  ["A59P", 0.381],
  ["A54G", -0.295],
  ["Q21N", -0.766],
  ["N53S", 0.115],
  ["T20Q", -0.911],
  ["T22K", 0.267],
  ["L17F", -0.588],
  ["A68M", -0.061],
  ["E4I", -0.145],
  ["V31P", -0.912],
  ["N23I", -0.539],
  ["G25Y", 0.101],
  ["A59I", 0.049],
  ["A7Q", -0.944],
  ["K58I", -0.984],
  ["E4Y", -0.604],
  ["E35K", -0.23],
  ["A29N", -0.595],
  ["F6H", -0.726],
  ["V12W", -0.56],
  ["H32Y", 0.276],
  ["Q48D", -0.055],
  ["F6E", -0.791],
  ["L17R", -0.803],
  ["A30P", -0.468],
  ["V12I", -0.002],
  ["K63W", -0.589],
  ["K5Y", -0.236],
  ["G33M", -0.792],
  ["A68H", -0.271],
  ["L61E", -0.604],
  ["K56H", -0.34],
  ["L49I", -0.262],
  ["T20L", -0.683],
  ["E9R", -0.645],
  ["T40V", -0.314],
  ["I60A", -0.281],
  ["L47T", -0.667],
  ["K63Q", -0.157],
  ["K5Q", -0.172],
  ["F36L", -0.393],
  ["E9P", -0.917],
  ["K16A", -0.08],
  ["A30I", -0.309],
  ["R1E", -0.348],
  ["F51P", -0.142],
  ["A68T", -0.05],
  ["N23V", -0.27]
]}
